Value source: patent US12331022B2

Each entry below carries its recorded EC50.
target: human α7 nAChR (Homo sapiens, UniProt P36544); construct: host or cells: HEK; test: Automated patch-clamp electrophysiology functional assay (Assay A); format: cell-based; settings: HEK cell line stably expressing human RIC-3 and human α7; IonFlux HT whole-cell population patch; with or without 40 μM acetylcholine; read-out: α7 nAChR Potency
Sequence (P36544 23-502): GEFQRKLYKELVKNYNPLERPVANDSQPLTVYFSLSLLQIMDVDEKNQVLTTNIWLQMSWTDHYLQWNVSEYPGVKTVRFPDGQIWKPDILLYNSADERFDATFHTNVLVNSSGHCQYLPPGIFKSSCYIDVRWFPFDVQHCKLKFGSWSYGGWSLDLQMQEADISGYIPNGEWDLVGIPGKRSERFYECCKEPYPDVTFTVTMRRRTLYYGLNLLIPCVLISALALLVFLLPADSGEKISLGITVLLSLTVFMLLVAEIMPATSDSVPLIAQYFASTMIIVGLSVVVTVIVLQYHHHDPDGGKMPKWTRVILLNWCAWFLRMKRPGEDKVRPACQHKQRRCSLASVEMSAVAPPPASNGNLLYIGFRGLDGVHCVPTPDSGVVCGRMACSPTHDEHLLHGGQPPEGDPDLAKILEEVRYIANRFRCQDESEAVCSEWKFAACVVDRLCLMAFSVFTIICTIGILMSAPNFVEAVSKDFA

Some entries whose results are on file:
>>> print(df.to_string())
                                   compound                            assayed_target            result
0  COc1cc(OC[C@H]2CC23CCN(S(N)(=O)=O)CC3)ccc1F  human α7 nAChR (Homo sapiens, UniProt P36544)  5000 to 50000 nM
1  NS(=O)(=O)N1CCC2(CC1)C(COc1noc(-c3ccccc3)n1)C2(F)F (single isomer, unassigned) [Example A21]  human α7 nAChR (Homo sapiens, UniProt P36544)    500 to 5000 nM
2  NS(=O)(=O)N1CCC2(CC1)CC2COc1cccc(OCC(F)(F)F)c1 (stereo not shown)  human α7 nAChR (Homo sapiens, UniProt P36544)     100 to 500 nM
3  NS(=O)(=O)N1CCC2(CC1)C[C@H]2COc1cccnc1OCC(F)(F)F  human α7 nAChR (Homo sapiens, UniProt P36544)    500 to 5000 nM
4  NS(=O)(=O)N1CCC2(CC1)CC2COc1ccc(F)cc1C(F)(F)F (single isomer, unassigned)  human α7 nAChR (Homo sapiens, UniProt P36544)    500 to 5000 nM

GET EC50 where system = human α7 nAChR (Homo sapiens, UniProt P36544) and item = NS(=O)(=O)N1CCC2(CC2COc2cccc(OCC(F)(F)F)n2)C(F)(F)C1 (racemic) 100 to 500 nM

GET EC50 where system = human α7 nAChR (Homo sapiens, UniProt P36544) and item = COc1cc(OC[C@H]2CC23CCN(S(N)(=O)=O)CC3)nc(OCC(F)(F)F)c1 100 to 500 nM

GET EC50 where system = human α7 nAChR (Homo sapiens, UniProt P36544) and item = NS(=O)(=O)N1CCC2(CC1)C[C@H]2COc1cccc(NCC(F)(F)F)n1 ≤ 100 nM

GET EC50 where system = human α7 nAChR (Homo sapiens, UniProt P36544) and item = NS(=O)(=O)N1CCC2(CC1)C(CSc1nnnn1-c1ccccc1)C2(F)F (single isomer, unassigned) [Example A61] 500 to 5000 nM
